// reported TD50 for each item listed
Test system: Primary T cells
Assay: Cytotoxicity, viability by flow cytometry
Type: cell-based
reported-property: TD50 (µM)

compound: COc1ccc(Nc2cc(-c3ccccc3OC)ncn2)cc1C=O [Example 29]
value-relation-sign: >
experimental-value: 0.5
//
compound: COc1ccc(F)cc1-c1cc(Nc2cc(F)c(OC)c(C(N)=O)c2)ncn1 [Example 140]
value-relation-sign: >
experimental-value: 20
//
compound: CNC(=O)c1cc(Nc2cc(-c3ccccc3OC)ncn2)ccc1OC [Example 25]
value-relation-sign: >
experimental-value: 0.5
//
compound: COc1ccc(Nc2cc(-c3ccccc3OC)ncn2)cc1C(=O)NN [Example 33]
value-relation-sign: >
experimental-value: 5
//
compound: CCOc1ccc(F)cc1-c1cc(Nc2cc(C(N)=O)c(OC)cc2F)ncn1 [Example 148]
value-relation-sign: =
experimental-value: 1
//
compound: COc1ccc(Nc2cc(-c3ccccc3OC)ncn2)cc1CNS(C)(=O)=O [Example 4]
value-relation-sign: =
experimental-value: 2.1
//
compound: COc1ccccc1-c1cc(Nc2cc(N)c(OC)c(F)c2)ncn1 [Example 88]
value-relation-sign: >
experimental-value: 20
//
compound: COc1ccccc1-c1cc(Nc2ccc(Cl)c(CO)c2)ncn1 [Example 6]
value-relation-sign: >
experimental-value: 0.5
//
compound: COc1ccc(Nc2cc(-c3ccccc3OC)ncn2)cc1O [Example 32]
value-relation-sign: =
experimental-value: 20
//
compound: COc1cc(F)c(Nc2cc(-c3ccccc3OC)ncn2)cc1C(N)=O [Example 143]
value-relation-sign: =
experimental-value: 15
//
compound: COc1ccc(Nc2cc(-c3ccccc3Oc3ccccc3)ncn2)cc1N [Example 77]
value-relation-sign: =
experimental-value: 10
//
compound: CCOc1ccc(F)cc1-c1cc(Nc2ccc(OC)c(C(N)=O)c2)ncn1 [Example 131]
value-relation-sign: =
experimental-value: 2
//
compound: CCOc1ccc(Nc2cc(-c3ccc(F)cc3OC)ncn2)cc1C(N)=O [Example 112]
value-relation-sign: =
experimental-value: 10

Hello, the source for this data is patent US9617225B2, in case you need it.
